Each entry below lists one item and its recorded koff value.
target: T1, monkey GPC3-His protein (monkey); experiment: SPR, antibody captured on Protein A chip, monkey GPC3-His analyte;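 note: run at 25 °C with 240 s association and up to 600 s dissociation, double-referenced, kinetics fitted to a 1:1 Langmuir binding model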
T1 construct: Bought recombinant protein; also called monkey GPC3 protein
Quick note: give the figure in s⁻¹, leave out the unit.

binder	koff, s⁻¹
F1.3.9 (antibody, human IgG1, kappa, V domains shown, Human-murine chimeric antibody) VH: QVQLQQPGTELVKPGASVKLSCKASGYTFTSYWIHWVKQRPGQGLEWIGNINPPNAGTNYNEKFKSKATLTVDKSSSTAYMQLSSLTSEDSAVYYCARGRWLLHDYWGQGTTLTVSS VL: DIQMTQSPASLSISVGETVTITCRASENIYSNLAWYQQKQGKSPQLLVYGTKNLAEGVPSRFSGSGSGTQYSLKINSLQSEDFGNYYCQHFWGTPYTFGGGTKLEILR	4.74e-05
F4.13.7 (antibody, human IgG1, kappa, V domains shown, Human-murine chimeric antibody) VH: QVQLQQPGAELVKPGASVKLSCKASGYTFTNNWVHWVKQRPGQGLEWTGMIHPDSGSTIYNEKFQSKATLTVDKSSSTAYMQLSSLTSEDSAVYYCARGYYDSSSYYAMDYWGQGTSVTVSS VL: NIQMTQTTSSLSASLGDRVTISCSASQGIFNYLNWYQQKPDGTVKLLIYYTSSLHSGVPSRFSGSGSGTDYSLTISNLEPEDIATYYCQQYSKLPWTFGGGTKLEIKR	0.00264
F1.153.1 (antibody, human IgG1, kappa, V domains shown, Human-murine chimeric antibody) VH: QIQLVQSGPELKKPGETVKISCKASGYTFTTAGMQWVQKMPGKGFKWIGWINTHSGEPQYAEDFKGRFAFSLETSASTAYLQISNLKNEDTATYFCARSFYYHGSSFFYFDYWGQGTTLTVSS VL: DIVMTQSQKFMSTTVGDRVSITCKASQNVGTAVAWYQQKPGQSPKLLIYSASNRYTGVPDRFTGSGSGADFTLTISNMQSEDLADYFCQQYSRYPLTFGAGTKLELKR	4.27e-05
F1.2.14 (antibody, human IgG1, kappa, V domains shown, Human-murine chimeric antibody) VH: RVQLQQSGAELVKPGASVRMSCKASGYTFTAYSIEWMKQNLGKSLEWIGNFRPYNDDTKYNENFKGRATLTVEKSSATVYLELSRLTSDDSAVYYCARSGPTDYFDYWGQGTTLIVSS VL: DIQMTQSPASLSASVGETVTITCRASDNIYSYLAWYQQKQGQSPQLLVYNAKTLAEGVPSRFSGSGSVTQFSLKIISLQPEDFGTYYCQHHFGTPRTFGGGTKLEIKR	0.000156

The record that follows has no koff shown yet.
Incoming: Bench note: what koff did F1.41.17 (antibody, human IgG1, kappa, V domains shown, Human-murine chimeric antibody) VH: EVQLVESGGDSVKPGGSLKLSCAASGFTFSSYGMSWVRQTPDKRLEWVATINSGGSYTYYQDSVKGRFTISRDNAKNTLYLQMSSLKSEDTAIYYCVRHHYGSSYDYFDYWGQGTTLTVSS VL: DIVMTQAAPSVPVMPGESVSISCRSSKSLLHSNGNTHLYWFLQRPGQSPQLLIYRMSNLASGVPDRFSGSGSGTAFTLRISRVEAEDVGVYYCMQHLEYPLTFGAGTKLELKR show?
Outgoing: 0.00213
